Please respond with reported mass density for every item in the list.
applied_conditions: 303.15 K; 2000 kPa; Liquid
Number only, in kg/m3; omit the unit.

Quick check: mass density of CCn1cc[n+](C)c1.F[B-](F)(F)F [1-ethyl-3-methylimidazolium tetrafluoroborate] ?
1297

Repeat with CCCCCCCn1cc[n+](C)c1.O=S(=O)([N-]S(=O)(=O)C(F)(F)F)C(F)(F)F
1343

Also need CCn1cc[n+](C)c1.O=S(=O)([N-]S(=O)(=O)C(F)(F)F)C(F)(F)F , thanks.
1516

Now this one: CCCCCCCCn1cc[n+](C)c1.O=S(=O)([N-]S(=O)(=O)C(F)(F)F)C(F)(F)F
1317

Values were extracted from the NIST ThermoML archive (doi:10.1021/je700205n).
